Species on record: Rattus norvegicus
method.notes: DrugMatrix - Regimen: Daily Repeat
Type: toxicity, organism-based, Sprague-Dawley
Set-up: regimen Daily Repeat, gender Male, age 6-8 weeks
assay.conditions: in vivo, po, 0 mg/kg, 72 h, tissue Blood, route oral GAVAGE, dose level Control, time 3 day, […]
test.readout: HEMATOCRIT

Below: 4 molecules and their reported HEMATOCRIT.
molecule: CCC(C)n1ncn(-c2ccc(N3CCN(c4ccc(OCC5COC(Cn6cncn6)(c6ccc(Cl)cc6Cl)O5)cc4)CC3)cc2)c1=O (centres undefined) [ITRACONAZOLE]
measurement: 33.67%

molecule: O=C(O)CCCc1ccc(N(CCCl)CCCl)cc1 [CHLORAMBUCIL]
measurement: 33.67%

molecule: O=NN(CCCl)C(=O)NC1CCCCC1 [LOMUSTINE]
measurement: 35.22%

molecule: O=c1oc2ccccc2c(O)c1Cc1c(O)c2ccccc2oc1=O [DICUMAROL]
measurement: 34.03%

Give one value of HEMATOCRIT per listed molecule.
1. OC(Cn1cncn1)(Cn1cncn1)c1ccc(F)cc1F [FLUCONAZOLE]
2. C[C@@H]1CN(c2c(F)c(N)c3c(=O)c(C(=O)O)cn(C4CC4)c3c2F)C[C@H](C)N1 [SPARFLOXACIN]

1: 33.67%; 2: 35.22%

Consider the following items and state reported HEMATOCRIT for each.
1. Cc1noc(NS(=O)(=O)c2ccc(N)cc2)c1C [SULFISOXAZOLE]
2. Cc1oncc1C(=O)Nc1ccc(C(F)(F)F)cc1 [LEFLUNOMIDE]
3. CCOC(=O)C1=C(COCCN)NC(C)=C(C(=O)OC)C1c1ccccc1Cl (centres undefined) [AMLODIPINE]

["36.87%", "31.63%", "35.22%"]

---

Species on record: Rattus norvegicus
method.notes: DrugMatrix - Regimen: Daily Repeat
Format: toxicity, organism-based, Sprague-Dawley
Parameters: regimen Daily Repeat, gender Male, age 6-8 weeks
assay.conditions: in vivo, po, 0 mg/kg, 120 h, tissue Blood, route oral GAVAGE, dose level Control, time 5 day, […]
Please go through the items and note down their HEMOGLOBIN.
Numbers only, in G/DL.

compound: O=C(O)CCCc1ccc(N(CCCl)CCCl)cc1
measure.unit: G/DL
measurement: 13.2

compound: CCC(C)n1ncn(-c2ccc(N3CCN(c4ccc(OCC5COC(Cn6cncn6)(c6ccc(Cl)cc6Cl)O5)cc4)CC3)cc2)c1=O (centres undefined)
measure.unit: G/DL
measurement: 13.2

compound: CCOC(=O)C1=C(COCCN)NC(C)=C(C(=O)OC)C1c1ccccc1Cl (centres undefined)
measure.unit: G/DL
measurement: 13.5

compound: CC(C)C(=O)Nc1ccc([N+](=O)[O-])c(C(F)(F)F)c1 [FLUTAMIDE]
measure.unit: G/DL
measurement: 13.38

compound: C[C@H]1O[C@@H](O[C@H]2[C@@H](O)C[C@H](O[C@H]3[C@@H](O)C[C@H](O[C@H]4CC[C@@]5(C)[C@H](CC[C@@H]6[C@@H]5C[C@@H](O)[C@]5(C)[C@@H](C7=CC(=O)OC7)CC[C@]65O)C4)O[C@@H]3C)O[C@@H]2C)C[C@H](O)[C@@H]1O
measure.unit: G/DL
measurement: 13.2

I have 4 compounds here; please give me HEMOGLOBIN for each one.
1. C[C@@H]1CN(c2c(F)c(N)c3c(=O)c(C(=O)O)cn(C4CC4)c3c2F)C[C@H](C)N1
2. CC(C)(Oc1ccc(Cl)cc1)C(=O)O
3. Cc1ccc(-c2cc(C(F)(F)F)nn2-c2ccc(S(N)(=O)=O)cc2)cc1
4. O=NN(CCCl)C(=O)NC1CCCCC1

[13.5, 13.42, 13.2, 13.5]
